test details: in vitro
assay setup: cynomolgus monkey, 20% fecal homogenate (supernatant), anaerobic, pH 6.8
Bridge positions count the residues as written; N and C are the ends. Square brackets hold non-standard residues; d marks the D form. Peptide text beside a SMILES is read from it. Trp(7-Me) = Cc1cccc2c(C[C@H](N)C(=O)O)c[nH]c12; 2Nal = N[C@@H](Cc1ccc2ccccc2c1)C(=O)O; AEF = NCCOc1ccc(C[C@H](N)C(=O)O)cc1; Cit = NC(=O)NCCC[C@H](N)C(=O)O; Pen = CC(C)(S)[C@H](N)C(=O)O; αMeK = C[C@](N)(CCCCN)C(=O)O; βAla = NCCC(=O)O
outcome measure: half-life at 20 μM (h)
Give the value, in units of h, as a plain number.

INPUT: What measured half-life at 20 μM goes with CC(=O)NCCCC[C@H](NC(=O)[C@](C)(CCCCN)NC(=O)[C@H](Cc1ccc2ccccc2c1)NC(=O)[C@H](Cc1ccc(OCCN)cc1)NC(=O)[C@H]1NC(=O)[C@H](CCC(N)=O)NC(=O)[C@H](Cc2c[nH]c3c(C)cccc23)NC(=O)[C@H]([C@@H](C)O)NC(=O)[C@H](CCCNC(N)=O)NC(=O)[C@@H](NC(C)=O)C(C)(C)SSC1(C)C)C(=O)N[C@@H](CC(N)=O)C(=O)NCCC(N)=O [compound 238] (Ac-[Pen][Cit]T[Trp(7-Me)]Q[Pen][AEF][2Nal][αMeK]K(Ac)N[βAla]-NH2; disulfide 1-6) ?
OUTPUT: 7
